- tgt: T1, human CD22-ECD-His protein (human, UniProt P20273 20-687)
- T1 construct: Made in house in HEK293E; also called hCD22-ECD-His; recombinant human CD22-ECD His protein; not shown: His tag
- T1 sequence: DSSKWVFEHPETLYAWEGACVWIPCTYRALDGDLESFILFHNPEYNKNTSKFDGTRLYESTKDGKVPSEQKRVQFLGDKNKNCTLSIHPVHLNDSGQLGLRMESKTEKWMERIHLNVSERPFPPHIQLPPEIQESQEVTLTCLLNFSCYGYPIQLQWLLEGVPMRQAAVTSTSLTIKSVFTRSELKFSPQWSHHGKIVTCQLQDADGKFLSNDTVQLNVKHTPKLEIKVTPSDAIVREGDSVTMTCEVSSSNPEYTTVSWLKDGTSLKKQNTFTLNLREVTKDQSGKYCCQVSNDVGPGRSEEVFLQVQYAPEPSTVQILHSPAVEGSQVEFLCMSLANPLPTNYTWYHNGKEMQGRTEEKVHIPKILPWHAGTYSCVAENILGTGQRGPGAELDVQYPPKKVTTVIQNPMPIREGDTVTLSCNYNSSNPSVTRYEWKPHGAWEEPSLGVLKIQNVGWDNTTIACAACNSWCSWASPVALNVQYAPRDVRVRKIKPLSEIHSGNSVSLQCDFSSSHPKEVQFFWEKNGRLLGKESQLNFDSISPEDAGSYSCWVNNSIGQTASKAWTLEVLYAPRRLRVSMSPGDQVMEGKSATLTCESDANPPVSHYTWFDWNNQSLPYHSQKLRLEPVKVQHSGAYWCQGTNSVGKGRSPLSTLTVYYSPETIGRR
- protocol-text: ELISA, Ab 0.001 nM
Label Met when OD450 >= 0.8 OD450; otherwise Not met.

Solved cases (5 shown):
F1.200.11 (antibody, human IgG1, kappa, V domains shown, Human-murine chimeric IgG1, kappa) VH: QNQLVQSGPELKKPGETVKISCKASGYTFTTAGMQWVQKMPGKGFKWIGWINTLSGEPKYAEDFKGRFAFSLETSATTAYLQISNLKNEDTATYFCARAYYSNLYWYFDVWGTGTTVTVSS VL: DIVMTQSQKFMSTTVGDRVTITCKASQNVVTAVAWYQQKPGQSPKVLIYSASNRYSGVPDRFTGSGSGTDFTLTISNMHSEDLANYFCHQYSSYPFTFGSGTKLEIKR | Met
F1.62.10 (antibody, human IgG1, kappa, V domains shown, Human-murine chimeric IgG1, kappa) VH: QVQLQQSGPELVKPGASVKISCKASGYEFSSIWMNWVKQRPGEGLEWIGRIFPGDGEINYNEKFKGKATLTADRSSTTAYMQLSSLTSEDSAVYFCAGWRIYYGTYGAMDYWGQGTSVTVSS VL: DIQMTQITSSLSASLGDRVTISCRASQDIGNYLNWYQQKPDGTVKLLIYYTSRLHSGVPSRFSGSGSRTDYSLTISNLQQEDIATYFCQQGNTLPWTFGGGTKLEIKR | Met
F1.172.13 (antibody, human IgG1, kappa, V domains shown, Human-murine chimeric IgG1, kappa) VH: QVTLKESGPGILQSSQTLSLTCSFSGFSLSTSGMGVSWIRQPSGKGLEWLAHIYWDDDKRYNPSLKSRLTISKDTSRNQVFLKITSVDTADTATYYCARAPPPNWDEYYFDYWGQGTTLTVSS VL: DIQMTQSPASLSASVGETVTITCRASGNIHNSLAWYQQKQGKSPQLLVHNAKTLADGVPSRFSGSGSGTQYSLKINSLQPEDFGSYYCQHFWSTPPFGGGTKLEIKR | Not met
HA22-hIgG1 (antibody, V domains shown) VH: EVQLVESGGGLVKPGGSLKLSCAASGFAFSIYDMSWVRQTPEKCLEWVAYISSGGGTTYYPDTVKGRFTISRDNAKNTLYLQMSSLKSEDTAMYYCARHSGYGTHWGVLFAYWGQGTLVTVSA VL: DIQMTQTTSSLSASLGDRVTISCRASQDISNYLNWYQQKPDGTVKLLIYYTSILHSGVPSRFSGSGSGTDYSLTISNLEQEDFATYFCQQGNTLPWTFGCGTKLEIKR | Met
F1.192.1 (antibody, human IgG1, kappa, V domains shown, Human-murine chimeric IgG1, kappa) VH: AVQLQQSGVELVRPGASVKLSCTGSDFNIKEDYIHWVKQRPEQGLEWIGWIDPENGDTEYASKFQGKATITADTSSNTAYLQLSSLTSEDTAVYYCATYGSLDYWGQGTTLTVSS VL: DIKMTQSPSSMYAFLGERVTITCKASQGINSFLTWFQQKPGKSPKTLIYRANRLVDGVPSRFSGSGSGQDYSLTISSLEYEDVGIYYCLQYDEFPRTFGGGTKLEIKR | Not met

Ask | Reported OD450 at or above 0.8 OD450? F2.127.11 (antibody, human IgG1, lambda, V domains shown, Human-murine chimeric IgG1, lambda) VH: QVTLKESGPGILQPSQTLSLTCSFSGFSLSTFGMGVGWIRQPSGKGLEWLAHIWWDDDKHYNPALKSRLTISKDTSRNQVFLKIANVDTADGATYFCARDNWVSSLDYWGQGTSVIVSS VL: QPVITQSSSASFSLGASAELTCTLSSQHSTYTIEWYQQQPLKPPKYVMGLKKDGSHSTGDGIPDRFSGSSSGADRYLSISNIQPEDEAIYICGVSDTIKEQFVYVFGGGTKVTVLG
Reply | Not met

Ask | Reported OD450 at or above 0.8 OD450? F1.17.1 (antibody, human IgG1, kappa, V domains shown, Human-murine chimeric IgG1, kappa) VH: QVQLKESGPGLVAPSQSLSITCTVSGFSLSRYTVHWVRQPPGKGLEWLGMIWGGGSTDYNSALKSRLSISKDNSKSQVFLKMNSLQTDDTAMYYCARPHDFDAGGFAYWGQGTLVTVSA VL: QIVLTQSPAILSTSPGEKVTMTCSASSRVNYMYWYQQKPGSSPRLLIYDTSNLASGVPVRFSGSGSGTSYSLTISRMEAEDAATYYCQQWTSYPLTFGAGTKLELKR
Reply | Not met

Data provenance is patent US20240084003A1.
